- Test system: Escherichia coli TOP10;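 also: peptides expressed intracellularly from a pBAD plasmid library in pooled LB shake-flask culture, induced with 0.3% L-arabinose, DNA abundance read by NGS, three biological replicates, DESeq2 with apeglm shrinkage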
- assay_remarks: shrunken log2 fold change of peptide-encoding DNA abundance (4.5 h post-induction vs induction); higher = less antimicrobial activity (less host growth inhibition)
- run_conditions: time post-induction: 4.5 h; library: site-saturation at positions 5, 18, 19, 20
Outcome label depends on shrunken log2 fold change relative to 0.01: at/above gives Satisfied, below gives Not satisfied.

residues | class_assignment
RRIRDRPPRLPRPRPRPTTVPRP | Satisfied
RRIRARPPRLPRPRPRPEIMPRP | Satisfied
RRIRWRPPRLPRPRPRPTLIPRP | Satisfied
RRIRCRPPRLPRPRPRPWGMPRP | Not satisfied
RRIRPRPPRLPRPRPRPWKRPRP | Not satisfied
RRIRKRPPRLPRPRPRPELFPRP | Satisfied
RRIRHRPPRLPRPRPRPLACPRP | Satisfied
RRIRMRPPRLPRPRPRPLYKPRP | Not satisfied
RRIRPRPPRLPRPRPRPNDQPRP | Satisfied
RRIRLRPPRLPRPRPRPNKHPRP | Not satisfied
RRIRHRPPRLPRPRPRPRNNPRP | Not satisfied
RRIRDRPPRLPRPRPRPQKDPRP | Not satisfied
RRIRPRPPRLPRPRPRPHSQPRP | Not satisfied
RRIRARPPRLPRPRPRPARRPRP | Satisfied
RRIRHRPPRLPRPRPRPTFFPRP | Satisfied
RRIRCRPPRLPRPRPRPWRCPRP | Satisfied
RRIRWRPPRLPRPRPRPWSGPRP | Satisfied
RRIRFRPPRLPRPRPRPFWWPRP | Satisfied
RRIRHRPPRLPRPRPRPRPGPRP | Satisfied
RRIRGRPPRLPRPRPRPNMQPRP | Satisfied
RRIRWRPPRLPRPRPRPNFGPRP | Satisfied
RRIRKRPPRLPRPRPRPPIKPRP | Satisfied
RRIRPRPPRLPRPRPRPLGRPRP | Satisfied
RRIRFRPPRLPRPRPRPYNKPRP | Not satisfied
RRIRTRPPRLPRPRPRPSNAPRP | Not satisfied
RRIRFRPPRLPRPRPRPETHPRP | Not satisfied
